What pEC50 was measured for each of the following?
molecular target: human β1 adrenergic receptor (Homo sapiens); test: Human β1 adrenergic receptor agonist activity, cAMP increase in transfected CHO cells; format: cell-based
Sequence (P08588 whole entry): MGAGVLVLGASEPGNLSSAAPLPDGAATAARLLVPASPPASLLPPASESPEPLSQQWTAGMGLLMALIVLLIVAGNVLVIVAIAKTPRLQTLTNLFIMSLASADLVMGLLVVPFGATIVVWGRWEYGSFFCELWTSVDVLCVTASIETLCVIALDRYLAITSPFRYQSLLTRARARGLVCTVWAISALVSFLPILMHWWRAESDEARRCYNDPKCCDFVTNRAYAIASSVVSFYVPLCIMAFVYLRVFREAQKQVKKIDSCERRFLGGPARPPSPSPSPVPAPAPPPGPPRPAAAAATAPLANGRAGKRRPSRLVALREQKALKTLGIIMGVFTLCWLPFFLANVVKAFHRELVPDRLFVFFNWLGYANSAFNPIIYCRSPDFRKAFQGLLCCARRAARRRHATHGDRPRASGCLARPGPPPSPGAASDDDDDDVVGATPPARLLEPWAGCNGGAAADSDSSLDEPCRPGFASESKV
When answering, recall that pEC50 equals minus log10 of the concentration in mol/L, and write that number alone.

## Task Quick one: pEC50 of C[C@H](Cc1ccc2c(c1)OC(C(=O)O)(C(=O)OCC(C)(C)C)O2)NC[C@H](O)c1cccc(Cl)c1 (stereo partly drawn) [Example 80] ?
## Result 5.62

## Task Need pEC50, item CC(C)CCOC(=O)C1(C(=O)O)Oc2ccc(C[C@@H](C)NC[C@H](O)c3cccc(Cl)c3)cc2O1 (stereo partly drawn) [Example 76]
## Result 6.01

## Task I have this compound here, CC(Cc1ccc2c(c1)OC(C(=O)O)(C(=O)OCC1CCC1)O2)NCC(O)c1cccc(Cl)c1 (stereo not drawn) [Example 70] , and I need its recorded pEC50.
## Result 5.52
